SYSTEM_NAME: hCD3 (human CD3) (Homo sapiens, UniProt P07766)
Sequence (P07766 23-126 limits assumed): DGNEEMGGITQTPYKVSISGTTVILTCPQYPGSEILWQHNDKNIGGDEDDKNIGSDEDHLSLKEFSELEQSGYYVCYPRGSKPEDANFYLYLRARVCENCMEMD
Sequence (P04234 22-105 partner limits assumed): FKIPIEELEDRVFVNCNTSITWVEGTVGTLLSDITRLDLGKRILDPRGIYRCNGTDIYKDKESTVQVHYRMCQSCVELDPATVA
TEST: Kinetics and affinity of hCD3/human IgG interactions by SPR (Bio-Rad Proteon XPR36)
Type: binding
CONDITION_LABEL: 37° C.
The entries below come with measured ka huCD3ed @37° C. values attached.
Lab book: enter the figure in M⁻¹ s⁻¹, no units written.

Before answering, review these 3 worked examples.
INSERT INTO assay_data (molecule, recorded_measurement) VALUES
  ('h2B4-VH-yaes VL_TK: anti-CD3 antibody (antibody, V domains shown) VH: EVQLVESGGGLVQPGGSLRLSCAASGFTFSDYYMTWVRQAPGKGLEWVAFIRNRARGYTSDYAESVKGRFTISRDNAKNSLYLQMNSLRAEDTAVYYCARDRPSYYVLDYWGQGTTVTVSS VL: DIVMTQSPDSLAVSLGERATINCKSSQSLFNVRSRKNYLAWYQQKPGQPPKLLISWASTRESGVPDRFSGSGSGTDFTLTISSLQAEDVAVYYCKQSYDLFTFGSGTKLEIK', 230000),
  ('h2B4-VH-wt VL_TK: anti-CD3 antibody (antibody, V domains shown) VH: EVQLVESGGGLVQPGGSLRLSCAASGFTFSDYYMTWVRQAPGKGLEWVAFIRNRARGYTSDHNASVKGRFTISRDNAKNSLYLQMNSLRAEDTAVYYCARDRPSYYVLDYWGQGTTVTVSS VL: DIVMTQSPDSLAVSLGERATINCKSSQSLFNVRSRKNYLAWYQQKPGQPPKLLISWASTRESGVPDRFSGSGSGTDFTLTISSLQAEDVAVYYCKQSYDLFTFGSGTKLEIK', 380000),
  ('h2B4-VH-yads VL_TK: anti-CD3 antibody (antibody, V domains shown) VH: EVQLVESGGGLVQPGGSLRLSCAASGFTFSDYYMTWVRQAPGKGLEWVAFIRNRARGYTSDYADSVKGRFTISRDNAKNSLYLQMNSLRAEDTAVYYCARDRPSYYVLDYWGQGTTVTVSS VL: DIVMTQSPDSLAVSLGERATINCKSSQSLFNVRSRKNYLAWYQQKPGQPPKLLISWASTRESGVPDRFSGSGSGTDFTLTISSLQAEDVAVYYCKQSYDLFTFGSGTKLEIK', 240000);

Could you now consider this next molecule?
Request: Param item = h2B4: anti-CD3 antibody (antibody, V domains shown) VH: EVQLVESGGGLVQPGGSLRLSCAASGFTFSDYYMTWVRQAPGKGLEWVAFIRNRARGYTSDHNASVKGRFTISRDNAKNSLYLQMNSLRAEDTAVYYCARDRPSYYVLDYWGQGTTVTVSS VL: DIVMTQSPDSLAVSLGERATINCTSSQSLFNVRSRKNYLAWYQQKPGQPPKLLISWASTRESGVPDRFSGSGSGTDFTLTISSLQAEDVAVYYCKQSYDLFTFGSGTKLEIK ; retrieve measured ka huCD3ed @37° C..
Response: 437000
